Reference for the values: paper PMC5011342

system: expanded OPCs; assay: cells; settings: alamarBlue viability of expanded OPCs, compound at 10 µM, relative to DMSO control
endpointName: 10 µM (% DMSO)
# value in % DMSO; strip the unit string

For reference, reported 10 µM (% DMSO) for CC(CN1c2ccccc2Sc2ccccc21)N(C)C (stereo not shown) stands at 19.9

For reference, reported 10 µM (% DMSO) for CN[C@@H]1[C@H](O)[C@H](NC)[C@H]2O[C@@]3(O)C(=O)C[C@@H](C)O[C@H]3O[C@@H]2[C@H]1O stands at 83.6

For reference, reported 10 µM (% DMSO) for CC(C)C(=O)Nc1ccc([N+](=O)[O-])c(C(F)(F)F)c1 [Flutamide] stands at 103.8

For reference, reported 10 µM (% DMSO) for CC(=O)OCC[N+](C)(C)C stands at 87.0

For reference, reported 10 µM (% DMSO) for C/C(=C\C(=O)OCCCCCCCCC(=O)O)C[C@@H]1OC[C@H](C[C@@H]2O[C@H]2[C@@H](C)[C@H](C)O)[C@@H](O)[C@H]1O stands at 104.3

For reference, reported 10 µM (% DMSO) for Cc1cn([C@H]2C[C@H](N=[N+]=[N-])[C@@H](CO)O2)c(=O)[nH]c1=O stands at 83.9

For reference, reported 10 µM (% DMSO) for CC(=O)OCC(=O)[C@@]1(O)CC[C@H]2[C@@H]3C[C@H](C)C4=CC(=O)C=C[C@]4(C)[C@H]3[C@@H](O)C[C@@]21C [Methylprednisolone acetate] stands at 95.3
